tested on: PC-3 prostate; assay: NCI-60 one-dose screen, 48 h (100 = growth as untreated, 0 = no growth, -100 = all killed); settings: 10 µM unless noted
About 83,000 compounds went through this panel and 20% of them were active in at least one assay; those are over-represented in the sample as a whole.
Readout name: growth (%)
Write the number in % without appending the unit.

Consider the following illustrative entries.
O=C(/C=C1\C(=O)N(Cc2ccccc2)c2ccccc21)c1ccc(OCCN2CCCCC2)cc1 :: 56.9
NC(=O)c1c(Nc2ccccc2)nn2cc(-c3nc4ccccc4s3)c(N)nc12 :: 91.4
COC(=O)c1ccc2[nH]c(O)c(C(=Nc3ccc(N(C)C(=O)CN4CCN(C)CC4)cc3)c3ccc(N)cc3)c2c1 :: 83.4

State the recorded growth for this entry: O=C1c2cc([N+](=O)[O-])ccc2-c2cc(Cl)c(NC(=O)C(F)(F)F)cc21
94.8

Data origin, for the record: PubChem BioAssay (NCI)
